These entries and their values trace back to patent US20060228349A1.

Target: T1, Biotinylated ADDL preparations (bADDLs) (N-terminal biotin)
T1 construct: Oligomer, number of copies not fixed; also called biotinylated ADDL antigen; high molecular weight 10% bADDL
Assay: BIACORE, bADDL as antigen; column Fab
Readout type: Kd

binder="20C2-5A Fab fragment (clone SJ-p2-1F) (Fab, V domains shown) VH: QVTLKESGPALVKPTQTLTLTCTFSGFSLSTSGMGVGWIRQPPGKALEWLAHIWWDDDKSYNPSLKSRLTISKDTSKNQVVLTMTNMDPVDTATYYCARRQLGLRSIDAMDYWGQGTTVTVSS VL: DVVMTQSPLSLPVTPGEPASISCRSSQSILHSNGNTYLEWYLQKPGQSPQLLIYKVSNRFSGVPDRFSGSGSGTDFTLKISRVEAEDVGVYYCFQSSFVPLTFGQGTKLEIKR" readout_type=Kd value_reported="41 nM"
binder="20C2-9A Fab fragment (clone SJ-p2-51) (Fab, V domains shown) VH: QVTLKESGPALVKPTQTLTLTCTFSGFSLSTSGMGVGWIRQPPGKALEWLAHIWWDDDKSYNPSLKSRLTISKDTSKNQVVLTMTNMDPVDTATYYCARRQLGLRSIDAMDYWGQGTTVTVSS VL: DVVMTQSPLSLPVTPGEPASISCRSSQSILHSNGNTYLEWYLQKPGQSPQLLIYKVSNRFSGVPDRFSGSGSGTDFTLKISRVEAEDVGVYYCVQTSLVPLTFGQGTKLEIKR" readout_type=Kd value_reported="40 nM"

Note: attention shifts to another entry.
INPUT: Query Kd for 20C2-1A Fab fragment (clone SJ-p2-60) (Fab, V domains shown) VH: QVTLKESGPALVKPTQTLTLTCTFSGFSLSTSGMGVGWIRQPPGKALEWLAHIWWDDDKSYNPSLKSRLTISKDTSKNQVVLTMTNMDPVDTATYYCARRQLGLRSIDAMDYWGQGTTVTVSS VL: DVVMTQSPLSLPVTPGEPASISCRSSQSILHSNGNTYLEWYLQKPGQSPQLLIYKVSNRFSGVPDRFSGSGSGTDFTLKISRVEAEDVGVYYCFQASRVPLTFGQGTKLEIKR
OUTPUT: 85 nM
